- target-of-assay: T1, rhEphA5 antigen (Homo sapiens, UniProt P54756)
- T1 construct: purchased R and D systems 3036-A5
- protocol-summary: kd (1/s)
// kd lookup, one value per entry
value-type: kd (s⁻¹)

1) VH6/VK4: humanized anti-EphA5 antibody, VH SEQ ID NO:7, VL SEQ ID NO:12 (antibody, V domains shown) VH: EVQLVESGGGLVQPGGSLKLSCAASGFTFSTFGIHWVRQAPGKGLEWVASISGASTTIYYADSVKGRFTISRDNSKNTLYLQMNSLRAEDTAVYYCARYGTSFPYGLDYWGQGTLVTVSS VL: DIVMTQSPDSLAVSLGERATINCKSSQSVDYDGDSYMNWYQQKPGKAPKLLIYGASNLESGIPDRFSGSGSGTDFTLTISRLEPEDAASYYCQQSNEDPFTFGQGTKLEIK ... 0.209
2) VH1/VK3: humanized anti-EphA5 antibody, VH SEQ ID NO:2, VL SEQ ID NO:11 (antibody, V domains shown) VH: EVTLVESGGGLVQPGGSRKLSCAASGFTFSTFGIHWVRQAPGKGLEWVAYISGASTTIYYADTVKGRFTISRDNSKNTLYLQMNSLRSEDTAMYYCARYGTSFPYGLDYWGQGTSVTVSS VL: DIVMTQSPDSLAVSLGERATINCKASQSVDYDGDSYMNWYQQKPGKAPKLLIYGASNLESGIPDRFSGSGSGTDFTLTISRLEPEDAAVYYCQQSNEDPFTFGQGTKLEIK ... 0.00125
3) VH2/VK5: humanized anti-EphA5 antibody, VH SEQ ID NO:3, VL SEQ ID NO:13 (antibody, V domains shown) VH: EVTLVESGGGLVQPGGSLKLSCAASGFTFSTFGIHWVRQAPGKGLEWVAYISGASTTIYYADTVKGRFTISRDNSKNTLYLQMNSLRSEDTAMYYCARYGTSFPYGLDYWGQGTLVTVSS VL: DIVMTQSPDSLAVSLGERATINCKSSQSVDYDGDSYMNWYQQKPGKAPKLLIYGASNLESGIPDRFSGSGSGTDFTLTISRLEPEDAAVYYCQQSNEDPFTFGQGTKLEIK ... 0.0014
4) VH5/VK4: humanized anti-EphA5 antibody, VH SEQ ID NO:6, VL SEQ ID NO:12; lead variant (antibody, V domains shown) VH: EVQLVESGGGLVQPGGSLKLSCAASGFTFSTFGIHWVRQAPGKGLEWVAYISGASTTIYYADSVKGRFTISRDNSKNTLYLQMNSLRAEDTAVYYCARYGTSFPYGLDYWGQGTLVTVSS VL: DIVMTQSPDSLAVSLGERATINCKSSQSVDYDGDSYMNWYQQKPGKAPKLLIYGASNLESGIPDRFSGSGSGTDFTLTISRLEPEDAASYYCQQSNEDPFTFGQGTKLEIK ... 0.00141
5) VH1/VK4: humanized anti-EphA5 antibody, VH SEQ ID NO:2, VL SEQ ID NO:12 (antibody, V domains shown) VH: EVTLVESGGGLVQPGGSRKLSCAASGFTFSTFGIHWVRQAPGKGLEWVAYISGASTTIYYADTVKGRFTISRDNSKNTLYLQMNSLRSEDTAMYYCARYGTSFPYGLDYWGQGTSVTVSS VL: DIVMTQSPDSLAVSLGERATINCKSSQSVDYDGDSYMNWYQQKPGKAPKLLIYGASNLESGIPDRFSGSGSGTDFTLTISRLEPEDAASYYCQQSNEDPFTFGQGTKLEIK ... 0.00137
6) VH3/VK5: humanized anti-EphA5 antibody, VH SEQ ID NO:4, VL SEQ ID NO:13 (antibody, V domains shown) VH: EVQLVESGGGLVQPGGSLKLSCAASGFTFSTFGIHWVRQAPGKGLEWVAYISGASTTIYYADTVKGRFTISRDNSKNTLYLQMNSLRSEDTAMYYCARYGTSFPYGLDYWGQGTLVTVSS VL: DIVMTQSPDSLAVSLGERATINCKSSQSVDYDGDSYMNWYQQKPGKAPKLLIYGASNLESGIPDRFSGSGSGTDFTLTISRLEPEDAAVYYCQQSNEDPFTFGQGTKLEIK ... 0.00143
7) VH5/VK2: humanized anti-EphA5 antibody, VH SEQ ID NO:6, VL SEQ ID NO:10; lead variant (antibody, V domains shown) VH: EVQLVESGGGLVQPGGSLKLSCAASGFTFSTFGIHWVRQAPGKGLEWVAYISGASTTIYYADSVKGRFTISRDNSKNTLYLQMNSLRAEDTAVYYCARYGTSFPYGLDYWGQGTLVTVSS VL: DIVMTQSPDSLAVSLGERATINCKASQSVDYDGDSYMNWYQQKPGKAPKLLIYGASNLESGIPDRFSGSGSGTDFTLTISRLEPEDAASYYCQQSNEDPFTFGQGTKLEIK ... 0.00123
8) VH6/VK3: humanized anti-EphA5 antibody, VH SEQ ID NO:7, VL SEQ ID NO:11 (antibody, V domains shown) VH: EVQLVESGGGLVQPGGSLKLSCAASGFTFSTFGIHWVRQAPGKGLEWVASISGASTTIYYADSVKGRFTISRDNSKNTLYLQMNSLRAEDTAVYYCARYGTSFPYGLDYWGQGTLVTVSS VL: DIVMTQSPDSLAVSLGERATINCKASQSVDYDGDSYMNWYQQKPGKAPKLLIYGASNLESGIPDRFSGSGSGTDFTLTISRLEPEDAAVYYCQQSNEDPFTFGQGTKLEIK ... 0.341
9) VH3/VK1: humanized anti-EphA5 antibody, VH SEQ ID NO:4, VL SEQ ID NO:9 (antibody, V domains shown) VH: EVQLVESGGGLVQPGGSLKLSCAASGFTFSTFGIHWVRQAPGKGLEWVAYISGASTTIYYADTVKGRFTISRDNSKNTLYLQMNSLRSEDTAMYYCARYGTSFPYGLDYWGQGTLVTVSS VL: DIVMTQSPGSLAVSLGERATINCKASQSVDYDGDSYMNWYQQKPGKAPKLLIYGASNLESGIPDRFSGSGSGTDFTLTISRLEEEDAASYYCQQSNEDPFTFGQGTKLEIK ... 0.00123

Data provenance is patent US12662541B2.
